- Assay Target: GluN1/2A receptors (Rattus norvegicus, UniProt P35439+Q00959)
- Construct: expressed in transfected cells; host or cells: tsA201 cells (HEK 293 variant)
- Sequence (Q00959 23-1464, other chains not shown): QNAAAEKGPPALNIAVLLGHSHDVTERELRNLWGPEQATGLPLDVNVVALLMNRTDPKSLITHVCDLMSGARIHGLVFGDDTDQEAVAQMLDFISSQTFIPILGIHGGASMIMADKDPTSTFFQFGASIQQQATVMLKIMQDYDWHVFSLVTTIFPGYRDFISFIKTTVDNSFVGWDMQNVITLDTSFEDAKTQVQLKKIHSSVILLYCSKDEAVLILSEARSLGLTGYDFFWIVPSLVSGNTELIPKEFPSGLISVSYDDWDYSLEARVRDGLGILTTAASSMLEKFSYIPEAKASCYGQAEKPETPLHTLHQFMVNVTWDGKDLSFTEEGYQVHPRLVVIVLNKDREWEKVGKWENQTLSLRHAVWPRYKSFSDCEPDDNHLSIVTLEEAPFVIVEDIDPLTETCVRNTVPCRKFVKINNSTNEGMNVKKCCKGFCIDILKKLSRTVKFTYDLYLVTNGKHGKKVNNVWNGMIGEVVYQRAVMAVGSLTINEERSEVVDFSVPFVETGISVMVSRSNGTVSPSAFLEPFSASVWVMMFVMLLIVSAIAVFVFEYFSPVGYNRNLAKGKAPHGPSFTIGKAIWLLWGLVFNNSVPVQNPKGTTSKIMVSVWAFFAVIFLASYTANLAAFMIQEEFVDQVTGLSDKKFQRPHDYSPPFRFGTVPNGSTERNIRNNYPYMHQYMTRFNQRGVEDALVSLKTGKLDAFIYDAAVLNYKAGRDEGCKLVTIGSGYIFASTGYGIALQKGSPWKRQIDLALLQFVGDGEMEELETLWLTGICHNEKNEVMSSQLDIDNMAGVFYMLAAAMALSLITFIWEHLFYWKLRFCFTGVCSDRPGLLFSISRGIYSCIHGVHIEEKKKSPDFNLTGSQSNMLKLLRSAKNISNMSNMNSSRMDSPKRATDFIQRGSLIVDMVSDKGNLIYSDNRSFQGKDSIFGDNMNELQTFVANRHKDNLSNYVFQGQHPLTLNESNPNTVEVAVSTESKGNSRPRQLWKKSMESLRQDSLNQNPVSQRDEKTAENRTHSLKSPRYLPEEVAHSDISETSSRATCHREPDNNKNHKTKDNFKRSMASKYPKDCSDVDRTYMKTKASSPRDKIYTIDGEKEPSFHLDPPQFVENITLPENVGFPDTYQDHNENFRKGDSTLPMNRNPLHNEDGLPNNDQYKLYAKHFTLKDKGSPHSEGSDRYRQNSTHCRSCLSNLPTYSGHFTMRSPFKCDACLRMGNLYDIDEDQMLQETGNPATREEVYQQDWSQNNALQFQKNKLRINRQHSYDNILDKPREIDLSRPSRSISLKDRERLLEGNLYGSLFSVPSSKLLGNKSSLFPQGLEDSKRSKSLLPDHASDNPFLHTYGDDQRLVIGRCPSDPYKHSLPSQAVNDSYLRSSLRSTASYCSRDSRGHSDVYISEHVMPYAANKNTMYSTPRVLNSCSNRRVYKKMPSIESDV
- Assay: MCI protocol, whole-cell recording from GluN1/2A NMDAR-expressing tsA201 cells
- Assay type: cell-based
- Condition Description: Memantine MCI IC50, pH 9.0 jump
Observable: pIC50
Value format note: pIC50 is -log10 of concentration (mol/L); just state the number.

Query string: Requested field: pIC50. Item: CC12CC3CC(C)(C1)CC(N)(C3)C2 [memantine]
Result string: 5.06

* * *

- Assay Target: GluN1/2A receptors (Rattus norvegicus, UniProt P35439+Q00959)
- Construct: expressed in transfected cells; host or cells: tsA201 cells (HEK 293 variant)
- Assay: Traditional channel block (coapplication of drug and agonists), tsA201 cells
- Assay type: cell-based
- Condition Description: traditional IC50, pH 9.0, WT
- Experimental: Wildtype or mutant GluN1/2A receptors were used for all tsA201 cell experiments. […] Pipettes were pulled from borosilicate capillary tubing (Sutter Instruments) on a Flaming Brown P-97 microelectrode puller (Sutter Instruments) and polished with a heated filament to a resistance of 2–5 MΩ. […] Whole-cell currents were recorded using an Axopatch 200B patch-clamp amplifier (Molecular Devices). […]
Observable: IC50 (µM)
Use µM as the unit, but write only the number.

Query string: Which IC50 reading was recorded for the compound CC12CC3CC(C)(C1)CC(N)(C3)C2 [memantine] ?
Result string: 3.43
